test system: Klebsiella aerogenes DSM 30053; assay: fold change of Histamine concentration vs plate DMSO controls (fold change (ratio)); higher = more amine produced, active = hit call of the paper (significant change in both replicates, either direction); details: incubation time: 27 h, anaerobic, 37 °C
Counter-ions that a name gives are not always drawn.

COMPOUND	TESTED_ON	fold change of Histamine concentration
CC(C)NCC(O)COc1ccc(COCCOC(C)C)cc1 (stereo not drawn) [Bisoprolol hemifumarate] (20 µM)	Klebsiella aerogenes DSM 30053	0.965
O=C(CCCN1CCC(O)(c2ccc(Br)cc2)CC1)c1ccc(F)cc1 [Bromperidol] (20 µM)	Klebsiella aerogenes DSM 30053	1.02
CCCCCNC(=N)N/N=C/c1c[nH]c2ccc(OC)cc12 [Tegaserod maleate] (20 µM)	Klebsiella aerogenes DSM 30053	0.983
O=P(O)(O)C(Cl)(Cl)P(=O)(O)O [Clodronate disodium] (20 µM)	Klebsiella aerogenes DSM 30053	1.02
CCN(CC)CCNC(=O)c1cc(S(C)(=O)=O)ccc1OC [Tiapride hydrochloride] (20 µM)	Klebsiella aerogenes DSM 30053	0.997
C=CC(N)CCC(=O)O (stereo not drawn) [Vigabatrin hydrochloride] (20 µM)	Klebsiella aerogenes DSM 30053	0.856
Nc1nnc(-c2cccc(Cl)c2Cl)c(N)n1 [Lamotrigine] (20 µM)	Klebsiella aerogenes DSM 30053	0.977
CO/N=C1\CN(c2nc3c(cc2F)c(=O)c(C(=O)O)cn3C2CC2)CC1CN (stereo not drawn) [Gemifloxacin mesylate] (20 µM)	Klebsiella aerogenes DSM 30053	0.0873
O=S(=O)(O)c1cc(O)ccc1O [Ethamsylate diethylammonium salt] (20 µM)	Klebsiella aerogenes DSM 30053	1.07
O=C(OCCOCCO)c1ccccc1Nc1cccc(C(F)(F)F)c1 [Etofenamate] (20 µM)	Klebsiella aerogenes DSM 30053	0.902
CCn1cc(C(=O)O)c(=O)c2cc(F)c(N3CCNCC3)nc21 [Enoxacin] (20 µM)	Klebsiella aerogenes DSM 30053	0.228
COc1cc(OC)c(C(=O)CCCN2CCCC2)c(OC)c1 [Buflomedil hydrochloride] (20 µM)	Klebsiella aerogenes DSM 30053	1.08
C=CCc1ccccc1OCC(O)CNC(C)C (stereo not drawn) [Alprenolol hydrochloride] (20 µM)	Klebsiella aerogenes DSM 30053	1.05
O=C(O)[C@H]1/C(=C/CO)O[C@@H]2CC(=O)N21 [Clavulanate potassium salt] (20 µM)	Klebsiella aerogenes DSM 30053	1.02
CC(C)(c1ccc(O)cc1)c1ccc(O)cc1 [Bisphenol A] (20 µM)	Klebsiella aerogenes DSM 30053	1.01
CCCc1cc(=O)[nH]c(=S)[nH]1 [Propylthiouracil] (20 µM)	Klebsiella aerogenes DSM 30053	0.972
CN(C)c1nc(N(C)C)nc(N(C)C)n1 [Altretamine] (20 µM)	Klebsiella aerogenes DSM 30053	1.08
Cc1c(NC(=O)c2cccnc2)c(=O)n(-c2ccccc2)n1C [Nifenazone] (20 µM)	Klebsiella aerogenes DSM 30053	0.926

---

tested on: Escherichia coli IAI1; test: fold change of Putrescine concentration vs plate DMSO controls (fold change (ratio)); higher = more amine produced, active = hit call of the paper (significant change in both replicates, either direction); details: incubation time: 27 h, anaerobic, 37 °C
Where a name gives a salt, the structure may show the parent alone.
Class satisfied: fold change of Putrescine concentration at least 1. Class not satisfied: fold change of Putrescine concentration below 1.

COMPOUND	CLASS
CCc1cc(C(N)=S)ccn1 [Ethionamide] (20 µM)	satisfied
CN(C)CC/C=C1\c2ccccc2CSc2ccccc21 [Dosulepin hydrochloride] (20 µM)	satisfied
C#C[C@]1(OC(C)=O)CC[C@H]2[C@@H]3CCC4=C[C@@H](OC(C)=O)CC[C@@H]4[C@H]3CC[C@@]21C [Ethynodiol diacetate] (20 µM)	not satisfied
Cn1c(=O)c2c(ncn2CC(=O)O)n(C)c1=O [Acefylline] (20 µM)	not satisfied
CN1CCN(c2c(F)cc3c(=O)c(C(=O)O)cn4c3c2OCN4C)CC1 [Marbofloxacin] (20 µM)	not satisfied

---

growth for assorted molecules
system: Clostridium sporogenes DSM 1664; assay: growth (OD595) fold change vs plate DMSO controls (fold change (ratio)); higher = more growth; conditions: incubation time: 27 h, anaerobic, 37 °C

MOLECULE	TESTED_ON	growth
COc1cc([S+](C)[O-])ccc1-c1nc2cccnc2[nH]1 (configuration not stated) [Sulmazole] (20 µM)	Clostridium sporogenes DSM 1664	0.885
O=C(NCc1ncc(C(F)(F)F)cc1Cl)c1c(Cl)cccc1Cl (20 µM)	Clostridium sporogenes DSM 1664	1
CC[C@H](C)C(=O)O[C@H]1CCC=C2C=C[C@H](C)[C@H](CC[C@@H]3C[C@@H](O)CC(=O)O3)[C@H]21 [Mevastatin] (20 µM)	Clostridium sporogenes DSM 1664	1.15
CC(C)(c1cc(Br)c(O)c(Br)c1)c1cc(Br)c(O)c(Br)c1 (20 µM)	Clostridium sporogenes DSM 1664	0
CC[C@@]1(O)C(=O)OCc2c1cc1n(c2=O)Cc2cc3c(CN(C)C)c(O)ccc3nc2-1 [Topotecan] (20 µM)	Clostridium sporogenes DSM 1664	1.08
C[C@H]1O[C@@H](O[C@H]2[C@@H](O)C[C@H](O[C@H]3[C@@H](O)C[C@H](O[C@H]4CC[C@@]5(C)[C@H](CC[C@@H]6[C@@H]5C[C@@H](O)[C@]5(C)[C@@H](C7=CC(=O)OC7)CC[C@]65O)C4)O[C@@H]3C)O[C@@H]2C)C[C@H](O)[C@@H]1O [Digoxin] (20 µM)	Clostridium sporogenes DSM 1664	1.14
c1ccc2cc3ccccc3cc2c1 [Anthracene] (20 µM)	Clostridium sporogenes DSM 1664	1.03

---

system: Klebsiella aerogenes DSM 30053; experiment: fold change of Putrescine concentration vs plate DMSO controls (fold change (ratio)); higher = more amine produced, active = hit call of the paper (significant change in both replicates, either direction); conditions: incubation time: 27 h, anaerobic, 37 °C
Structures can show the parent of a compound that is named as a salt.

COMPOUND	fold change of Putrescine concentration
COc1ccc(-c2noc(CC(=O)O)c2-c2ccc(OC)cc2)cc1 [Mofezolac] (20 µM)	1
CN1[C@@H]2CC[C@H]1C[C@@H](OC(c1ccccc1)c1ccccc1)C2 [Benztropine mesylate] (20 µM)	1.03
CCCCc1nc(Cl)c(CO)n1Cc1ccc(-c2ccccc2-c2nnn[nH]2)cc1 [Losartan] (20 µM)	1.04
CCOC(=O)/C=C(C)/C=C/C=C(C)/C=C/c1c(C)cc(OC)c(C)c1C [Etretinate] (20 µM)	1.02
O=C(O)c1cc(=O)c2c(OCC(O)COc3cccc4oc(C(=O)O)cc(=O)c34)cccc2o1 [Cromolyn disodium salt] (20 µM)	0.96
CN(C)CCCO[C@@H]1[C@H]2OC(C)(C)O[C@H]2O[C@@H]1[C@H](O)CO [Amiprilose hydrochloride] (20 µM)	1.02
Cn1cc(C(=O)[C@@H]2CCc3[nH]cnc3C2)c2ccccc21 [Ramosetron hydrochloride] (20 µM)	1.01
OC(CCN1CCCCC1)(c1ccccc1)C1CCCCC1 (centres undefined) [Trihexyphenidyl-D,L hydrochloride] (20 µM)	0.97
CC(=O)Oc1ccccc1C(=O)Nc1ncc([N+](=O)[O-])s1 [Nitazoxanide] (20 µM)	0.982
N[C@@H]1CONC1=O [D-cycloserine] (20 µM)	1.03
CCS(=O)(=O)CCn1c([N+](=O)[O-])cnc1C [Tinidazole] (20 µM)	0.977
Oc1ccc2ccccc2c1N=Nc1ccccc1 [Sudan I (1-phenylazo-2-hydroxynaphthalene)] (20 µM)	0.893
C=C1C[C@@]23CC[C@H]4[C@@](C)(CCC[C@@]4(C)C(=O)O[C@@H]4O[C@H](CO)[C@@H](O)[C@H](O)[C@H]4O)[C@@H]2CC[C@]1(O[C@@H]1O[C@H](CO)[C@@H](O)[C@H](O)[C@H]1O[C@@H]1O[C@H](CO)[C@@H](O)[C@H](O)[C@H]1O)C3 [Stevioside] (50 µM)	0.863
CC(C)(C)NC(=O)[C@@H]1C[C@@H]2CCCC[C@@H]2CN1C[C@@H](O)[C@H](Cc1ccccc1)NC(=O)[C@H](CC(N)=O)NC(=O)c1ccc2ccccc2n1 [Saquinavir mesylate] (20 µM)	0.993
COC(=O)C1=C(C)NC(C)=C(C(=O)OCCN2CCN(C(c3ccccc3)c3ccccc3)CC2)C1c1cccc([N+](=O)[O-])c1 (centres undefined) [Manidipine Dihydrochloride] (20 µM)	1
CNCCC=C1c2ccccc2CCc2ccccc21 [Nortriptyline hydrochloride] (20 µM)	1.02
CCN(CC)CCNC(=O)COc1ccc(OC)cc1 [Mefexamide hydrochloride] (20 µM)	0.961
CC(C)(C)C(=O)OCOC(=O)[C@@H]1N2C(=O)[C@@H](/N=C/N3CCCCCC3)[C@H]2SC1(C)C [Pivmecillinam hydrochloride] (20 µM)	0.954
CC(C)=CCC1C(=O)N(c2ccccc2)N(c2ccccc2)C1=O [Feprazone] (20 µM)	1.02
COc1ccc(-c2ccc3cc(C(=O)O)ccc3c2)cc1C12CC3CC(CC(C3)C1)C2 [Adapalene] (20 µM)	1
CCC1(c2ccccc2)C(=O)NCNC1=O [Primidone] (20 µM)	1.03
Cn1cc(C(=O)Nc2ccccc2-c2cc(F)c(F)c(F)c2)c(C(F)F)n1 (20 µM)	1.02
O=C(NCCO[N+](=O)[O-])c1cccnc1 [Nicorandil] (20 µM)	1.03
C#C[C@]1(OC(C)=O)CC[C@H]2[C@@H]3CCC4=C[C@@H](OC(C)=O)CC[C@@H]4[C@H]3CC[C@@]21C [Ethynodiol diacetate] (20 µM)	1
N=C(N)N1CCc2ccccc2C1 [Debrisoquin sulfate] (20 µM)	1
Cn1nnnc1SCC1=C(C(=O)O)N2C(=O)[C@@H](NC(=O)[C@H](O)c3ccccc3)[C@H]2SC1 [Cefamandole sodium salt] (20 µM)	1.02
COc1ccc2[nH]c([S+]([O-])Cc3ncc(C)c(OC)c3C)nc2n1 (centres undefined) [Tenatoprazole] (20 µM)	0.996
O=C(O)COc1nn(Cc2ccccc2)c2ccccc12 [Bendazac] (20 µM)	1
N=C(N)NCCN1CCCCCCC1 [Guanethidine sulfate] (20 µM)	0.953

The values you see were collected from the supplement of paper PMC12494721.
